B1: glmS ribozyme (parent)
chain: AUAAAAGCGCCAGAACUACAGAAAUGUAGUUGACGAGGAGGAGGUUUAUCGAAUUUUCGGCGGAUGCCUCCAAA

# Variants of: B1
# TEST DETAILS: self-cleavage kobs at 10000 uM GlcN6P; higher = faster cleavage; RNA array
# CONDITION INFO: with glucosamine-6-phosphate
Variants at the floor of the assay were thinned out.
READOUT LABEL: self-cleavage kobs at 10000 uM GlcN6P (s⁻¹)
Answers are plain numbers, in s⁻¹.

Recorded self-cleavage kobs at 10000 uM GlcN6P, per entry:
U46G G66U C67U; 0.00023
A12C U54A; 0.0301
A39U U46A A53G; 0.00108
A12U A39C U56G; 0.00168
U30C C68G; 2.14e-05

List the reported self-cleavage kobs at 10000 uM GlcN6P of each variant below.
1. U46C C71A
2. A6U U31A
3. U47A C67G
4. A14U A39C U65C

output:
0.000453
9.85e-05
0.000534
6.04e-05

List the reported self-cleavage kobs at 10000 uM GlcN6P of each variant below.
1. U47A U55C
2. A12C A14U
3. U55C G59U

output:
1. 0.024
2. 0.000348
3. 2.55e-05

List the reported self-cleavage kobs at 10000 uM GlcN6P of each variant below.
1. A15U U31A G32A A36U U57A C58G C71U
2. A12G C71U
3. A12C U47A
4. C16G U55C

output:
1. 0.000109
2. 0.00102
3. 0.014
4. 0.00213

List the reported self-cleavage kobs at 10000 uM GlcN6P of each variant below.
1. U45A U65C
2. G29A C58U C70U
3. A15G U55A

output:
0.00374
5.99e-05
0.0387

src = the supplement of paper PMC7125110
